system: AKT (Homo sapiens, UniProt Q9Y243)
Construct: Kinases are expressed as either kinase domains or full length constructs; made in house
Sequence (Q9Y243 whole entry, the tested form may be a part): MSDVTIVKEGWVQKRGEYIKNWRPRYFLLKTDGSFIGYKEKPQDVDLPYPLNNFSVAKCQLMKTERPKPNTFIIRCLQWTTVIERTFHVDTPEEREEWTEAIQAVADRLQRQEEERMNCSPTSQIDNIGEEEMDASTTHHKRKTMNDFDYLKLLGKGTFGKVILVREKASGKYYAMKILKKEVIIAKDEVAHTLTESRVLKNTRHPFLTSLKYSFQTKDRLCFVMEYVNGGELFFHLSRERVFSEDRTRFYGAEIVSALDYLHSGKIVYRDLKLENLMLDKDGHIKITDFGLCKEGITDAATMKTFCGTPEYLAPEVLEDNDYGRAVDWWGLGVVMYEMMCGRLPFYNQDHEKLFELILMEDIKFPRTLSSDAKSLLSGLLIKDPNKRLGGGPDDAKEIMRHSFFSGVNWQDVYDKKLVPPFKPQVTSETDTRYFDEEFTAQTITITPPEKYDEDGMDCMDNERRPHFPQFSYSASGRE
experiment.notes: Kinase inhibition assay (33P transfer), AKT
Type: biochemical
experimental.conditions: Table 2, kinase inhibition class; read-out: AKT3-1
quantity: IC50

Here are 10 compounds together with their reported answers.
[
  {
    "compound": "c1ccc(CNc2nc3ccccc3n2-c2ncnc(Nc3cccc(Cc4nnn[nH]4)c3)n2)nc1 [Compound 958]",
    "observed": "5.04 to 7.35 µM"
  },
  {
    "compound": "COc1cc(Nc2ncnc(-c3cccnc3)n2)cc(OC)c1OC [Compound 219]",
    "observed": "> 13.3 µM"
  },
  {
    "compound": "COc1cc(Nc2ncnc(-n3c(Nc4ccc(Cl)cc4)nc4ccccc43)n2)cc(OC)c1OC [Compound 375]",
    "observed": "> 8.93 µM"
  },
  {
    "compound": "C=CCNc1cc(-c2ncnc(Nc3cc(OC)c(OC)c(OC)c3)n2)ccn1 [Compound 412]",
    "observed": "> 11.4 µM"
  },
  {
    "compound": "Nc1nc2ccccc2n1-c1ncnc(Nc2ccc3c(c2)OCO3)n1 [Compound 526]",
    "observed": "6.91 to 10.1 µM"
  },
  {
    "compound": "COc1cc(Nc2ncnc(Nc3ccc(Cl)c4ccccc34)n2)cc(OC)c1OC [Compound 1031]",
    "observed": "> 10.3 µM"
  },
  {
    "compound": "CCN(c1cccc(C)c1)c1ncnc(Nc2cc(OC)c(OC)c(OC)c2)n1 [Compound 537]",
    "observed": "> 11.4 µM"
  },
  {
    "compound": "CCOC(=O)C(Nc1nc2ccccc2n1-c1ncnc(Nc2cc(OC)c(OC)c(OC)c2)n1)c1ccccc1 (centres unmarked) [Compound 585]",
    "observed": "> 8.1 µM"
  },
  {
    "compound": "COc1cc(Nc2ncnc(-c3ccc(F)cc3)n2)cc(OC)c1OC [Compound 222]",
    "observed": "> 12.6 µM"
  },
  {
    "compound": "c1ccc(Cn2ncc3cc(Nc4ncnc(Nc5ncccn5)n4)ccc32)cc1 [Compound 738]",
    "observed": "> 11.4 µM"
  }
]

Problem: Tell me its IC50 given COc1cc(Nc2ncnc(Nc3cc(Cl)c(O)c(Cl)c3)n2)cc(OC)c1OC [Compound 68] as the entry.
Result: > 10.3 µM

Problem: Note down IC50 recorded for CN(c1cccc(Cl)c1)c1ncnc(Nc2cccc(Br)c2)n1 [Compound 707]
Result: > 11.5 µM

Problem: Quote IC50 reported for O=c1[nH]c2ccccc2n1-c1ncnc(Nc2ncccn2)n1 [Compound 490] please.
Result: > 14.7 µM

Problem: Report IC50, nothing else, for this compound: CN(c1cccc(Cl)c1)c1ncnc(Nc2cc(C(C)(C)C)on2)n1 [Compound 754]
Result: > 12.5 µM

Problem: Specify IC50 for COc1cc(Nc2ncnc(-n3c(NC4CCc5ccccc54)nc4ccccc43)n2)cc(OC)c1OC (centres unmarked) [Compound 1044] and stop.
Result: > 8.83 µM

Problem: Specify IC50 for COc1ccc(Nc2ncnc(-n3c(=O)[nH]c4ccccc43)n2)cn1 [Compound 489] and stop.
Result: > 13.4 µM

Problem: Tell me measured IC50 for COc1cc(Nc2ncnc(-n3c(Nc4cc(OC)c(OC)c(OC)c4)nc4ccccc43)n2)cc(OC)c1OC [Compound 402] please.
Result: > 8.04 µM

The values you see were collected from patent US7074789B2.
